Assay: Blood concentration, oral, rats, suspended in CMC aqueous solution (Example 17)
Assay type: in vivo, Male Wistar rats
Settings: blood, 0.5 hr., 50 mg/kg oral, rat, read-out: Blood Concentration of the Compound
Quantity Name: concentration at 0.5 h (µg/mL)
Numbers only here, please. The scale is µg/mL.

- Molecule Smiles: "CO[C@@]1(NC(=O)CSc2nc(C[C@H](N)C(=O)OCOC(C)=O)c[nH]2)C(=O)N2C(C(=O)OCOC(C)=O)=C(CSc3nnnn3C)CS[C@@H]21"
  concentration at 0.5 h (µg/mL): 6.8
- Molecule Smiles: "Cn1nnnc1SCC1=C(C(=O)O)N2C(=O)[C@@H](NC(=O)CSc3nc(C[C@H](NC=O)C(=O)O)c[nH]3)[C@H]2SC1"
  concentration at 0.5 h (µg/mL): 3.9
- Molecule Smiles: "CO[C@@]1(NC(=O)CSc2nc(C[C@H](N)C(=O)O)c[nH]2)C(=O)N2C(C(=O)O)=C(COC(C)=O)CS[C@@H]21"
  concentration at 0.5 h (µg/mL): 3.9

Here is the next item to consider.
*Q* Recorded concentration at 0.5 h of "CO[C@@]1(NC(=O)CSc2nc(C[C@H](N)C(=O)O)c[nH]2)C(=O)N2C(C(=O)O)=C(CSc3nnnn3C)CS[C@@H]21" , please.
*A* 4.6

---

Test: Absorption test, oral, rats, solution in buffer pH 7 (Example 16)
Format: in vivo, Male Wistar rats
Details: blood, 2 hrs., 50 mg/kg oral, rat, average of 6, read-out: Blood Concentration of the Compound
Protocol: The absorption test of the compounds as obtained in Examples 1-11 were tested by the following method. Male Wistar rats weighing 180-250 g were fed with only water overnight. […] The concentration of the compound in blood of the tested animals (one group consisting of 6 animals) was measured 0.5, 1, 2 and 4 hours after the administration by Bioassay method by using Bacillus subtilis ATCC 6633 strain as an indicator bacteria. […]
Everything with concentration at 2 h lower than 2 µg/mL is N; everything else, including exactly 2 µg/mL, is Y.

Example cases with answers are listed next.
- Molecule Smiles: "Cc1nnc(SCC2=C(C(=O)O)N3C(=O)[C@@H](NC(=O)CSc4nc(C[C@H](N)C(=O)O)c[nH]4)[C@H]3SC2)o1"
  Category Label: "Y"
- Molecule Smiles: "CC(=O)OCC1=C(C(=O)O)N2C(=O)[C@@H](NC(=O)CSc3nc(C[C@H](N)C(=O)O)c[nH]3)[C@H]2SC1"
  Category Label: "N"
- Molecule Smiles: "N[C@@H](Cc1c[nH]c(SCC(=O)N[C@@H]2C(=O)N3C(C(=O)O)=C(Cl)CS[C@H]23)n1)C(=O)O"
  Category Label: "Y"
- Molecule Smiles: "Cc1nnc(SCC2=C(C(=O)O)N3C(=O)[C@@H](NC(=O)CSc4nc(C[C@H](N)C(=O)O)c[nH]4)[C@H]3SC2)s1"
  Category Label: "Y"

*Q* Identify whether the reported concentration at 2 h of the following molecule is 2 µg/mL or greater: "Cn1nncc1SCC1=C(C(=O)O)N2C(=O)[C@@H](NC(=O)CSc3nc(C[C@H](N)C(=O)O)c[nH]3)[C@H]2SC1"
*A* N

*Q* Please check the record "N[C@@H](Cc1c[nH]c(SCC(=O)N[C@@H]2C(=O)N3C(C(=O)O)=CCS[C@H]23)n1)C(=O)O" and state if its concentration at 2 h is at or above 2 µg/mL.
*A* Y
